test system: Pseudomonas aeruginosa; test: MIC/MBC against CF isolates (CLSI, alamar blue); conditions: Pseudomonas aeruginosa, CF Pseudomonas isolate NB15
endpoint: MBC (µg/mL)

compound="CO[C@@]1(NC(=O)Cc2cccs2)C(=O)N2C(C(=O)O)=C(COC(N)=O)CS[C@@H]21 [Cefoxitin]" result_qualifier=> measured=256
compound="C[C@H]1COc2c(N3CCN(C)CC3)c(F)cc3c(=O)c(C(=O)O)cn1c23 [Levofloxacin]" result_qualifier== measured=4
compound="CC(C)(O/N=C(\\C(=O)N[C@@H]1C(=O)N2C(C(=O)[O-])=C(C[n+]3ccccc3)CS[C@H]12)c1csc(N)n1)C(=O)O [Ceftazidime]" result_qualifier== measured=512
compound="NC[C@H]1O[C@H](O[C@H]2[C@H](O)[C@@H](O[C@H]3O[C@H](CO)[C@@H](O)[C@H](N)[C@H]3O)[C@H](N)C[C@@H]2N)[C@H](N)C[C@@H]1O [Tobramycin]" result_qualifier== measured=8

* * *

test system: Stenotrophomonas maltophilia; assay: MIC/MBC against CF isolates (CLSI, alamar blue); conditions: Stenotrophomonas maltophilia, CF Stenotrophomonas isolate Steno 3
endpoint: MIC (µg/mL)

compound=CC(C)(O/N=C(\C(=O)N[C@@H]1C(=O)N2C(C(=O)[O-])=C(C[n+]3ccccc3)CS[C@H]12)c1csc(N)n1)C(=O)O result_qualifier=> measured=32
compound="CO/N=C(\\C(=O)N[C@@H]1C(=O)N2C(C(=O)[O-])=C(C[N+]3(C)CCCC3)CS[C@H]12)c1csc(N)n1 [Cefepime]" result_qualifier=> measured=32
compound=CO[C@@]1(NC(=O)Cc2cccs2)C(=O)N2C(C(=O)O)=C(COC(N)=O)CS[C@@H]21 result_qualifier== measured=256
compound=C[C@H]1COc2c(N3CCN(C)CC3)c(F)cc3c(=O)c(C(=O)O)cn1c23 result_qualifier== measured=1
compound=NC[C@H]1O[C@H](O[C@H]2[C@H](O)[C@@H](O[C@H]3O[C@H](CO)[C@@H](O)[C@H](N)[C@H]3O)[C@H](N)C[C@@H]2N)[C@H](N)C[C@@H]1O result_qualifier=> measured=32

* * *

test system: Acinetobacter baumannii; assay: MIC/MBC against clinical isolates (CLSI, alamar blue); conditions: Acinetobacter baumannii, read-out: MBC 50, 10 Acinetobacter isolates
endpoint: MBC (µg/mL)

compound="C[C@@H](O)[C@H]1C(=O)N2C(C(=O)O)=C(SCCN=CN)C[C@H]12 [Imipenem]" system="Acinetobacter baumannii" endpoint=MBC endpoint_unit=µg/mL result_qualifier== measured=8
compound="NC[C@H]1O[C@H](O[C@H]2[C@H](O)[C@@H](O[C@H]3O[C@H](CO)[C@@H](O)[C@H](N)[C@H]3O)[C@H](N)C[C@@H]2N)[C@H](N)C[C@@H]1O [Tobramycin]" system="Acinetobacter baumannii" endpoint=MBC endpoint_unit=µg/mL result_qualifier== measured=4
compound="CC(C)(O/N=C(\\C(=O)N[C@@H]1C(=O)N2C(C(=O)[O-])=C(C[n+]3ccccc3)CS[C@H]12)c1csc(N)n1)C(=O)O [Ceftazidime]" system="Acinetobacter baumannii" endpoint=MBC endpoint_unit=µg/mL result_qualifier=> measured=32
compound="C[C@H]1COc2c(N3CCN(C)CC3)c(F)cc3c(=O)c(C(=O)O)cn1c23 [Levofloxacin]" system="Acinetobacter baumannii" endpoint=MBC endpoint_unit=µg/mL result_qualifier== measured=16
compound="CO[C@@]1(NC(=O)Cc2cccs2)C(=O)N2C(C(=O)O)=C(COC(N)=O)CS[C@@H]21 [Cefoxitin]" system="Acinetobacter baumannii" endpoint=MBC endpoint_unit=µg/mL result_qualifier=> measured=256
